Kindly state EC50 for each of the entries shown.
- TARGET UNDER TEST: T1, Human FGFR2βIIIb (human, UniProt P21802-21 22-263, limits assumed)
- T1 construct: Construct used in the ELISA (tag, Fc, limits) is not described
- T1 sequence (P21802 other isoform, or with tags, fused parts or gaps limits assumed): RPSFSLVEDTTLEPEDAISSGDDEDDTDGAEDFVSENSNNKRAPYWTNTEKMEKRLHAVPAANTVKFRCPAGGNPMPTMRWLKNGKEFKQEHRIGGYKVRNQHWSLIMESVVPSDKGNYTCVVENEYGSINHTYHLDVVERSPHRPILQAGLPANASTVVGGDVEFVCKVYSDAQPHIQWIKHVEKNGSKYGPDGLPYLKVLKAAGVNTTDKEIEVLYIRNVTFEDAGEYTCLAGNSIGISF
- METHOD NOTES: ELISA, coated antigen, anti-Fab HRP
Answer in nM, number only, no unit symbol.

Inquiry: For FWB1922 (antibody, V domains shown) VH: QVQLVQSGAEVKKPGSSVKVSCKASGYIFTSYNVHWVRQAPGQGLEWIGSIYPDNGDSTYNQNYRGRATITADKSTSTAYMELSSLRSEDTAVYYCARGDFAYWGQGTLVTVSS VL: DIQMTQSPSSLSASVGDRVTITCKGSNGISNDIAWYQQKPGKAPKLLIYSASYRYSGVPSRFSGSGSGTDFTFTISSLQPEDIATYYCQQHSTTPYTFGQGTKLEIK , what is its reported EC50?
Reply text: 0.215

Inquiry: Quick one: FWB1913 (antibody, V domains shown) VH: QVQLVQSGAEVKKPGSSVKVSCKASGYIFTSYNVHWVRQAPGQGLEWIGSIYPDNGDSSYNQNYKGRATITADKSTSTAYMELSSLRSEDTAVYYCARGDYAYWGQGTLVTVSS VL: DIQMTQSPSSLSASVGDRVTITCKASNGVSNDIAWYQQKPGKAPKLLIYSASYRYSGVPSRFSGSGSGTDFTFTISSLQPEDIATYYCQQHSTTPYSFGQGTKLEIK
Reply text: 0.196

Inquiry: Quick one: FWB1906 (antibody, V domains shown) VH: QVQLVQSGAEVKKPGSSVKVSCKASGYIFTSYNVHWVRQAPGQGLEWIGSIYPDNGDSSYNQNYRGRATITADKSTSTAYMELSSLRSEDTAVYYCARGDFAYWGQGTLVTVSS VL: DIQMTQSPSSLSASVGDRVTITCKASNGISNDIAWYQQKPGKAPKLLIYSASYRYSGVPSRFSGSGSGTDFTFTISSLQPEDIATYYCQQHSTTPYTFGQGTKLEIK
Reply text: 0.167

Inquiry: Quick one: FWB1907 (antibody, V domains shown) VH: QVQLVQSGAEVKKPGSSVKVSCKASGYIFTSYNVNWVRQAPGQGLEWIGSIYPDNGDSSYNNNYKGRATITADKSTSTAYMELSSLRSEDTAVYYCARGDFAYWGQGTLVTVSS VL: DIQMTQSPSSLSASVGDRVTITCRASNGISNDIAWYQQKPGKAPKLLIYSASYRYSGVPSRFSGSGSGTDFTFTISSLQPEDIATYYCQQHSTTPYTFGQGTKLEIK
Reply text: 0.262

Inquiry: Quick one: FWB1915 (antibody, V domains shown) VH: QVQLVQSGAEVKKPGSSVKVSCKASGYIFTSYNVHWVRQAPGQGLEWIGSIYPDNGDSSYDEDYKGRATITADKSTSTAYMELSSLRSEDTAVYYCARGDFAYWGQGTLVTVSS VL: DIQMTQSPSSLSASVGDRVTITCKASNGVSNDIAWYQQKPGKAPKLLIYSASYRYSGVPSRFSGSGSGTDFTFTISSLQPEDIATYYCQQHSTTPYTFGQGTKLEIK
Reply text: 0.185
